Value source: patent US9029396B2

assay: Dog pharmacokinetics after oral administration of compound of example No. 1; type: in vivo, Beagle dogs; details: dog, blood, po; male Beagle dogs, example 1 3.0 mg/kg p.o. (crystalline monohydrate suspension), 0.083 h
REPORTED METRIC: concentration at 0.083 h (nM)

1) Cc1cccc2c(C3=C(c4nc(N5CCNC6(CC6)C5)cc5ccccc45)C(=O)N(CO)C3=O)c[nH]c12 | 10
2) Cc1cccc2c(C3=C(c4nc(N5CCNC6(CC6)C5)cc5ccccc45)C(=O)NC3=O)c[nH]c12 | 15

###

assay: Dog pharmacokinetics after oral administration of compound of example No. 3 (mono acetate salt); type: in vivo, Beagle dogs; conditions: blood, po; fasted male Beagle dogs, example No. 3 mono acetate salt p.o. 100 mg/dog, 0.5 h
REPORTED METRIC: concentration at 0.5 h (nM)

1. Cc1cccc2c(C3=C(c4nc(N5CCNC6(CC6)C5)cc5ccccc45)C(=O)NC3=O)c[nH]c12 [Example 3] | 936

###

experiment: Dog pharmacokinetics after oral administration of compound of example No. 1; assay type: in vivo, Beagle dogs; details: dog, blood, po; male Beagle dogs, example 1 3.0 mg/kg p.o., 1 h
REPORTED METRIC: concentration at 1 h (nM)

1. Cc1cccc2c(C3=C(c4nc(N5CCNC6(CC6)C5)cc5ccccc45)C(=O)N(CO)C3=O)c[nH]c12 | 6.3
2. Cc1cccc2c(C3=C(c4nc(N5CCNC6(CC6)C5)cc5ccccc45)C(=O)NC3=O)c[nH]c12 | 1310

###

test: Solubility in simulated gastric and intestinal fluids; assay type: physicochemical; conditions: Free Form, FaSSIF pH 6.5
REPORTED METRIC: solubility

1) Cc1cccc2c(C3=C(c4nc(N5CCNC6(CC6)C5)cc5ccccc45)C(=O)NC3=O)c[nH]c12 | 30 µg/mL

###

# concentration at 0.75 h annotations
experiment: Dog pharmacokinetics after oral administration of compound of example No. 1; type: in vivo, Beagle dogs; details: dog, blood, po; male Beagle dogs, example 1 3.0 mg/kg p.o., 0.75 h
REPORTED METRIC: concentration at 0.75 h (nM)

1. Cc1cccc2c(C3=C(c4nc(N5CCNC6(CC6)C5)cc5ccccc45)C(=O)NC3=O)c[nH]c12 | 1200
2. Cc1cccc2c(C3=C(c4nc(N5CCNC6(CC6)C5)cc5ccccc45)C(=O)N(CO)C3=O)c[nH]c12 | 19.1

###

test: Dog pharmacokinetics after oral administration of compound of example No. 3 (mono acetate salt); assay type: in vivo, Beagle dogs; details: blood, po; fasted male Beagle dogs, example No. 3 mono acetate salt p.o. 100 mg/dog, 4 h
REPORTED METRIC: concentration at 4 h

1) Cc1cccc2c(C3=C(c4nc(N5CCNC6(CC6)C5)cc5ccccc45)C(=O)NC3=O)c[nH]c12 | 1900 nM

###

assay: Dog pharmacokinetics after oral administration of compound of example No. 3 (mono acetate salt); type: in vivo, Beagle dogs; details: blood, po; fasted male Beagle dogs, example No. 3 mono acetate salt p.o. 100 mg/dog, 1 h
REPORTED METRIC: concentration at 1 h (nM)

1. Cc1cccc2c(C3=C(c4nc(N5CCNC6(CC6)C5)cc5ccccc45)C(=O)NC3=O)c[nH]c12 | 2160
